Numbers sourced from ChEMBL document CHEMBL1155297.

- Tested on: Staphylococcus aureus
- measurement-protocol: Antibacterial activity against Staphylococcus aureus NCIM 5021 after 24 hrs by microdilution susceptibility method
- Assay type: functional
- recorded-conditions: NCIM 5021, 24 h
Entries and their measured MIC follow.
I only need the number, in µg/mL, no unit after it.

Worked set:
1. NC1=NN=C(N)C1C(CC(=O)c1ccc(Cl)cc1)C(=O)c1ccc(Cl)cc1 (stereo not given); 100
2. N=C1ON=C(N)C1C(CS(=O)(=O)c1ccc(Cl)cc1)S(=O)(=O)c1ccc(Cl)cc1 (stereo not given); 50
3. O=C(N[C@H](CO)[C@H](O)c1ccc([N+](=O)[O-])cc1)C(Cl)Cl; 6.25
4. NC1=NN=C(N)C1C(CS(=O)(=O)c1ccc(Cl)cc1)S(=O)(=O)c1ccc(Cl)cc1 (stereo not given); 25

Which MIC is reported for this compound? N=C1ON=C(N)C1C(CC(=O)c1ccc(Cl)cc1)C(=O)c1ccc(Cl)cc1 (stereo not given)
50
